Assay: Inhibition of HCV NS5B polymerase
Design: species or system Hepacivirus hominis
So basically, if IC50 comes in under 2000 nM it's condition met, and if it's 2000 nM or more it's condition not met.

[
  {
    "smilesEntry": "CC(=O)Nc1nc([C@H](Cc2c[nH]c3ccc(O)cc23)NC(=O)c2ccc3c(c2)nc(-c2ccoc2)n3C2CCCCC2)cs1",
    "classification": "condition met"
  },
  {
    "smilesEntry": "O=C(N[C@@H](Cc1ccc(O)cc1)C(=O)NCc1ccccn1)c1ccc2c(c1)nc(-c1ccoc1)n2C1CCCCC1",
    "classification": "condition not met"
  },
  {
    "smilesEntry": "O=C(N[C@@H](Cc1c[nH]c2ccc(O)cc12)C(=O)O)c1ccc2c(c1)nc(-c1ccoc1)n2C1CCCCC1",
    "classification": "condition met"
  },
  {
    "smilesEntry": "CN(C)CCNC(=O)[C@H](Cc1ccc(O)cc1)NC(=O)c1ccc2c(c1)nc(-c1ccoc1)n2C1CCCCC1",
    "classification": "condition not met"
  },
  {
    "smilesEntry": "O=C(N[C@@H](Cc1ccc(O)cc1)C(=O)O)c1ccc2c(c1)nc(-c1ccoc1)n2C1CCCCC1",
    "classification": "condition met"
  },
  {
    "smilesEntry": "O=C(N[C@@H](Cc1ccc(O)cc1)c1cscn1)c1ccc2c(c1)nc(-c1ccoc1)n2C1CCCCC1",
    "classification": "condition not met"
  },
  {
    "smilesEntry": "NC(=O)[C@H](Cc1ccc(O)cc1)NC(=O)c1ccc2c(c1)nc(-c1ccoc1)n2C1CCCCC1",
    "classification": "condition met"
  },
  {
    "smilesEntry": "O=C(N[C@@H](Cc1ccc(O)cc1)C(=O)NCc1ccncc1)c1ccc2c(c1)nc(-c1ccoc1)n2C1CCCCC1",
    "classification": "condition not met"
  }
]

---

Assay: Distribution coefficient, log D at pH 7.2
Assay type: physicochemical
Conditions: octanol/water
Classify by measured logD: true if it is equal to or exceeds 3, false if it is smaller.

[
  {
    "smilesEntry": "CC(C)[C@H](Cc1ccc(O)cc1)NC(=O)c1ccc2c(c1)nc(-c1ccoc1)n2C1CCCCC1",
    "classification": "true"
  },
  {
    "smilesEntry": "O=C(N[C@@H](Cc1c[nH]c2ccc(O)cc12)c1cscn1)c1ccc2c(c1)nc(-c1ccoc1)n2C1CCCCC1",
    "classification": "true"
  },
  {
    "smilesEntry": "NC(=O)[C@H](Cc1ccc(O)cc1)NC(=O)c1ccc2c(c1)nc(-c1ccoc1)n2C1CCCCC1",
    "classification": "true"
  },
  {
    "smilesEntry": "O=C(O)COc1ccc2[nH]cc(C[C@H](NC(=O)c3ccc4c(c3)nc(-c3ccoc3)n4C3CCCCC3)C(=O)O)c2c1",
    "classification": "false"
  },
  {
    "smilesEntry": "Cc1nc([C@H](Cc2c[nH]c3ccc(O)cc23)NC(=O)c2ccc3c(c2)nc(-c2ccoc2)n3C2CCCCC2)cs1",
    "classification": "true"
  },
  {
    "smilesEntry": "O=C(N[C@@H](Cc1c[nH]c2ccc(O)cc12)C(=O)O)c1ccc2c(c1)nc(-c1ccoc1)n2C1CCCCC1",
    "classification": "false"
  }
]

Values compiled from ChEMBL document CHEMBL1149312.
